The measured values listed here are drawn from ChEMBL document CHEMBL1629713.

assay: Ratio of drug level in brain to plasma in rat at 6.8 mg/kg, po; assay type: ADME, organism-based; design: dose 6.8 mg/kg, route oral; conditions: read-out: BPR
measured property: Kp
I'd appreciate a reply containing only the number, no unit.

Input: State the recorded Kp for this entry: C[C@H](Oc1ccc(S(C)(=O)=O)cc1C(=O)N1Cc2ccc(C3CCOCC3)cc2C1)C(F)(F)F
Output: 0.6

* * *

test: Oral bioavailability in rat at 6.8 mg/kg; format: ADME, organism-based; conditions: in vivo
measured property: bioavailability (%)
Reply numerically in %, unit not repeated.

Input: Looking for the measured bioavailability of C[C@H](Oc1ccc(S(C)(=O)=O)cc1C(=O)N1Cc2ccc(C3CCOCC3)cc2C1)C(F)(F)F , can you help?
Output: 65

* * *

test: Aqueous solubility of the compound by lyophilisate solubility assay; assay type: physicochemical; conditions: buffer
# log10 solubility annotations
Short version: log10 scale, solubility, µg/mL.

These solved cases illustrate the format of a correct answer.
Input: Look up log10 solubility for this molecule: C[C@H](Oc1ccc(S(C)(=O)=O)cc1C(=O)N1Cc2cccc(C#N)c2C1)C(F)(F)F
Output: 2.41

Input: Fill blank: measured log10 solubility of the molecule CC(C)Oc1ccc(S(C)(=O)=O)cc1C(=O)N1Cc2cc(C(F)(F)F)cnc2C1 is ____.
Output: 2.06

Input: Recorded log10 solubility of COc1ccc2c(c1)CN(C(=O)c1cc(S(C)(=O)=O)ccc1O[C@@H](C)C(F)(F)F)C2 , please.
Output: 1.66

New cases:
Input: May I ask what log10 solubility has been recorded for C[C@H](Oc1ccc(S(C)(=O)=O)cc1C(=O)N1Cc2ccc(-c3ccccc3)cc2C1)C(F)(F)F ?
Output: 0.60

Input: Look up log10 solubility: C[C@H](Oc1ccc(S(C)(=O)=O)cc1C(=O)N1Cc2ccc(-c3ccccn3)cc2C1)C(F)(F)F
Output: 1.48

Input: Find the recorded log10 solubility belonging to CS(=O)(=O)c1ccc(-c2ccc(F)cc2)c(C(=O)N2Cc3ccc(C4CCOCC4)cc3C2)c1 and report it.
Output: 1.18

Input: Name the recorded log10 solubility for CC(C)Oc1ccc(S(C)(=O)=O)cc1C(=O)N1Cc2ccc(C3CCOCC3)cc2C1 .
Output: 2.28

Input: // log10 solubility lookup, key: C[C@H](Oc1ccc(S(C)(=O)=O)cc1C(=O)N1Cc2ccc(-c3ccncc3)cc2C1)C(F)(F)F
Output: 1.40

Input: Report log10 solubility for CS(=O)(=O)c1ccc(OCCC(F)(F)F)c(C(=O)N2Cc3ccc(C4CCOCC4)cc3C2)c1 please.
Output: 2.52

* * *

test: Permeability of the compound by PAMPA; format: ADME; conditions: read-out: permeability
The label condition met is reserved for Papp strictly under 4 ×10⁻⁶ cm/s; condition not met covers values equal to or above it.

Input: Decide: Papp of C[C@H](Oc1ccc(S(C)(=O)=O)cc1C(=O)N1Cc2ccc(N3CCOCC3)cc2C1)C(F)(F)F strictly below 4 ×10⁻⁶ cm/s?
Output: condition not met

Input: Quick check: Papp of C[C@H](Oc1ccc(S(C)(=O)=O)cc1C(=O)N1Cc2cc(C(F)(F)F)cnc2C1)C(F)(F)F under 4 ×10⁻⁶ cm/s?
Output: condition not met

Input: Answer whether the compound CS(=O)(=O)c1ccc(OCCC(F)(F)F)c(C(=O)N2Cc3cc(C(F)(F)F)cnc3C2)c1 has Papp strictly less than 4 ×10⁻⁶ cm/s
Output: condition not met

Input: Determine whether this compound shows Papp lower than 4 ×10⁻⁶ cm/s (ties excluded): C[C@H](Oc1ccc(S(C)(=O)=O)cc1C(=O)N1Cc2ccc(Cl)cc2C1)C(F)(F)F
Output: condition not met

Input: Given C[C@H](Oc1ccc(S(C)(=O)=O)cc1C(=O)N1Cc2ccc(C(F)(F)F)nc2C1)C(F)(F)F , is recorded Papp strictly lower than 4 ×10⁻⁶ cm/s?
Output: condition not met

Input: Dear colleague, could you confirm whether Papp of C[C@H](Oc1ccc(S(C)(=O)=O)cc1C(=O)N1Cc2ccc(C(F)(F)F)cc2C1)C(F)(F)F falls below 4 ×10⁻⁶ cm/s? Thanks.
Output: condition met

Input: Please let me know if C[C@H](Oc1ccc(S(C)(=O)=O)cc1C(=O)N1Cc2ccc(C3CCCCO3)cc2C1)C(F)(F)F (stereo not given in full) shows Papp below 4 ×10⁻⁶ cm/s.
Output: condition met

Input: Decide: Papp of CS(=O)(=O)c1ccc(N2CCOCC2)c(C(=O)N2Cc3cc(C(F)(F)F)cnc3C2)c1 strictly below 4 ×10⁻⁶ cm/s?
Output: condition met

Input: Is Papp strictly under 4 ×10⁻⁶ cm/s for the entry CS(=O)(=O)c1ccc(-c2ccc(F)c(F)c2)c(C(=O)N2Cc3cc(C(F)(F)F)cnc3C2)c1 ?
Output: condition not met

* * *

molecular target: Sodium- and chloride-dependent glycine transporter 1 (Homo sapiens); experiment: Inhibition of human GlyT1 expressed in CHO cells assessed as inhibition of [3H]glycine uptake by liquid scintillation counting; assay type: cell-based
Sequence (P48067 whole entry): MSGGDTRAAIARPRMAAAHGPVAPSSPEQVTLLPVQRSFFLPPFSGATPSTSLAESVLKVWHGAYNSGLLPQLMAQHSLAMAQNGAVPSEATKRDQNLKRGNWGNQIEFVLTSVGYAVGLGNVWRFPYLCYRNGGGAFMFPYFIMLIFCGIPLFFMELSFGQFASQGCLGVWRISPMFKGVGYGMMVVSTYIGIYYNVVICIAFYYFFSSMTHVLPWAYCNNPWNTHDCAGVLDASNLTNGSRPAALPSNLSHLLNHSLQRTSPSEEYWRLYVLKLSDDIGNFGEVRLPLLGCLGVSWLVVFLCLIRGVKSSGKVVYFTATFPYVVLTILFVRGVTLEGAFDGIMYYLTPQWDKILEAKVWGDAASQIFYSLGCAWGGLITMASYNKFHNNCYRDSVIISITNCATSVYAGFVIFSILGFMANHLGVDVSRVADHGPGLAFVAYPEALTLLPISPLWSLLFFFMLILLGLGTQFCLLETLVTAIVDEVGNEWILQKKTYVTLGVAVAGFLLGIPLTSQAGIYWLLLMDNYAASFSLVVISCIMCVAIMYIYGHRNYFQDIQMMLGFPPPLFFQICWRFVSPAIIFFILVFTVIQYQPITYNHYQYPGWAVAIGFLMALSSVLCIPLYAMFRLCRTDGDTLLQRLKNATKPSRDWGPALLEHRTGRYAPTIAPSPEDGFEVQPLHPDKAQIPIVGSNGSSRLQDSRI
Attribute: EC50
Form entry: value (nM) — number only.

Input: Quick check: EC50 of CS(=O)(=O)c1ccc(N2CCOCC2)c(C(=O)N2Cc3cc(C(F)(F)F)cnc3C2)c1 ?
Output: 3000

Input: Look at this compound and give its reported EC50. C[C@H](Oc1ccc(S(C)(=O)=O)cc1C(=O)N1Cc2ccc(N3CCN(C)CC3)cc2C1)C(F)(F)F
Output: 2080

Input: What measured EC50 goes with C[C@H](Oc1ccc(S(C)(=O)=O)cc1C(=O)N1Cc2cnc(C(F)(F)F)cc2C1)C(F)(F)F ?
Output: 132

Input: Report EC50 for CS(=O)(=O)c1ccc(-c2ccc(F)c(F)c2)c(C(=O)N2Cc3cc(C(F)(F)F)cnc3C2)c1 please.
Output: 30

Could you now consider this next compound?
Input: Need EC50 of COc1cccc2c1CN(C(=O)c1cc(S(C)(=O)=O)ccc1O[C@@H](C)C(F)(F)F)C2 , thanks.
Output: 1940

* * *

target: Sodium- and chloride-dependent glycine transporter 1 (Homo sapiens); assay: Inhibition of human GlyT1 expressed in CHO cells assessed as inhibition of [3H]glycine uptake by liquid scintillation counting; assay type: cell-based
measured property: EC50 (nM)
# output: bare number, implied unit nM

Input: Which measured EC50 value corresponds to CC(C)Oc1ccc(S(C)(=O)=O)cc1C(=O)N1Cc2cc(C(F)(F)F)cnc2C1 ?
Output: 70

Input: Field request: EC50 | item: C[C@H](Oc1ccc(S(C)(=O)=O)cc1C(=O)N1Cc2ccc(-c3ccccn3)cc2C1)C(F)(F)F
Output: 84

Kindly review the next compound as well.
Input: Give the measured EC50 of CS(=O)(=O)c1ccc(OCCC(F)(F)F)c(C(=O)N2Cc3cc(C(F)(F)F)cnc3C2)c1 .
Output: 111
